// cross-study collection: IC50 for SIK1 (Homo sapiens, UniProt P57059)

Here's what some known entries look like.
- molecule: "COc1cc(-c2cnc3cc(OCCN4CCS(=O)(=O)CC4)ccn23)cc2c1C(=O)N(CC(F)(F)F)CC2"
  value_kind: "IC50"
  measured_value: "100 to 500 nM"
- molecule: "COc1cc(-c2cnc3cc(OC[C@H]4CN(C)CCO4)ccn23)cc2c1C(=O)N(CC(F)(F)F)CC2"
  value_kind: "IC50"
  measured_value: "100 to 500 nM"
- molecule: "COc1c(F)cc(F)cc1-c1c[nH]c2ncc(-c3csc(N4CCOCC4)n3)cc12"
  value_kind: "IC50"
  measured_value: "> 100 nM"

Exam item: Please tell me the measured IC50 for `Cc1cc(-c2cnc3cc(OCCN4CCOCC4)ccn23)cc(OC(F)F)c1C(=O)NC1CC1` ; system: SIK1 (Homo sapiens, UniProt P57059).
Sequence (P57059 whole entry): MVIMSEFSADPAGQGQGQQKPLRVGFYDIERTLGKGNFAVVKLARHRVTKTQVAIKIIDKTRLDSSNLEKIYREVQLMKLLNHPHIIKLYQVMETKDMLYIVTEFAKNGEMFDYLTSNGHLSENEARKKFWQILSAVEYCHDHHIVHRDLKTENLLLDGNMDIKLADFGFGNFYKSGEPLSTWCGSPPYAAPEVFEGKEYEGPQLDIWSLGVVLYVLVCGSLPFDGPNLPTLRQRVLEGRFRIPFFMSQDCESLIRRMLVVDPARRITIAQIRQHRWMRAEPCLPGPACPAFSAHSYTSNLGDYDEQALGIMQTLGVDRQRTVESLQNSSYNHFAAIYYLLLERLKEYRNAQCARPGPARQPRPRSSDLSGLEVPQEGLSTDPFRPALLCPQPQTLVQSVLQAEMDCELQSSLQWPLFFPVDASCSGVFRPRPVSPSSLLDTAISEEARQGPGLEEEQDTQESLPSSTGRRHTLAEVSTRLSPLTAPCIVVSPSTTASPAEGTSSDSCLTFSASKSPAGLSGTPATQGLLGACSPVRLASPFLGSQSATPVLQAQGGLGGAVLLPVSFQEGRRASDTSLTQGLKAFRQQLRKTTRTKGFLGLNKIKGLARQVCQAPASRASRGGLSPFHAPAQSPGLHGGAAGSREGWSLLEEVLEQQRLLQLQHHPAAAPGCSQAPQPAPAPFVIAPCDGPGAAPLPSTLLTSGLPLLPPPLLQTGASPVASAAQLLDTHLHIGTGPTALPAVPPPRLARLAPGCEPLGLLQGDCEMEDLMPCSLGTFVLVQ
Marked response: 100 to 500 nM

Exam item: Fill in: IC50 on SIK1 (Homo sapiens, UniProt P57059), entry `COC(=O)C1CN(CCOc2ccn3c(-c4cc(OC)c(C(=O)NC5CC5)c(OC(F)F)c4)cnc3c2)C1`
Marked response: 10 to 100 nM

Exam item: Determine reported IC50 for `COc1cc(-c2cnc3cc(OCCCN4CCC5(CC4)CNC(=O)O5)ccn23)cc(OC(F)F)c1C(=O)NC1CC1` ; test system: SIK1 (Homo sapiens, UniProt P57059).
Marked response: 10 to 100 nM

Exam item: Output reported IC50 of the molecule CCCCn1cc(-c2cc(C#N)c3c(-c4cc(OC)c5c(c4)[C@@H](C)CNC5=O)n(C)nc3c2)cn1 (single isomer, unassigned) on SIK1 (Homo sapiens, UniProt P57059).
Marked response: 6.8 nM

Exam item: Supply IC50 measured with SIK1 (Homo sapiens, UniProt P57059) for `COc1c(F)cc(F)cc1-c1c[nH]c2ncc(-c3cccc(S(=O)(=O)N(C)C)c3)cc12` .
Marked response: > 1000 nM

Exam item: Determine reported IC50 for `COc1cc(-c2c3c(OCc4cncc(C#N)c4)cc(-c4cnn(C)c4)cc3nn2C)cc(OC(F)F)c1C(=O)N1CC(O)(C(F)(F)F)C1` ; test system: SIK1 (Homo sapiens, UniProt P57059).
Marked response: 6.4 nM

Exam item: Provide IC50, system SIK1 (Homo sapiens, UniProt P57059), entry `CNc1cc(-c2cnc3cc(OCCN(C)C)ccn23)cc(OC(F)F)c1C(=O)NCC(F)(F)F`
Marked response: 100 to 500 nM

Exam item: Report value only: IC50, SIK1 (Homo sapiens, UniProt P57059), COc1cc(-c2cnc3cc(OCCCN4CCCCC4)ccn23)cc(OC(F)F)c1C(=O)N[C@H]1CC[C@H]1O (racemic)
Marked response: 100 to 500 nM

###

// compounds with IC50 on SIK1 (Homo sapiens, UniProt P57059), multi-source literature

- structure_as_smiles: "OCCN1CCN(c2cnn(-c3cnc4[nH]cc(-c5ccc6c(c5)OC(F)(F)O6)c4c3)c2)CC1"
  IC50: "> 100 nM"
- structure_as_smiles: "COc1cc(-c2cnc3cc(OCCCN4CCn5ncnc5C4)ccn23)cc(OC(F)F)c1C(=O)NC1CC1"
  IC50: "10 to 100 nM"
- structure_as_smiles: "COc1cc(-c2c3c(C#N)cc(-c4cnn(C[C@@H](C)O)c4)cc3nn2C)cc(OC(F)F)c1C(=O)NCC1(F)CC1"
  IC50: "16 nM"

Exam item: System SIK1 (Homo sapiens, UniProt P57059). Read-out IC50. Item `Cc1cc(-c2cnc3cc(OCCN4CCOCC4)ccn23)cc(OC(F)F)c1C(=O)NCC(F)(F)F` . Report value.
Marked response: > 500 nM

Exam item: Look up SIK1 (Homo sapiens, UniProt P57059) data: IC50 of `COc1cc(-c2cnc3cc(OCCN4CCN(CCO)CC4)ccn23)cc(OC(F)F)c1C(=O)NC1CC1` , then report it.
Marked response: 10 to 100 nM

Exam item: Would you please give the reported IC50 of `CCOC(=O)C1CCN(CCCOc2ccn3c(-c4cc(OC)c(C(=O)NC5CC5)c(OC(F)F)c4)cnc3c2)CC1` with SIK1 (Homo sapiens, UniProt P57059)?
Marked response: 10 to 100 nM

Exam item: Report IC50 on SIK1 (Homo sapiens, UniProt P57059) for this entry: `Oc1c(F)cc(F)cc1-c1c[nH]c2ncc(-c3ccsc3)cc12`
Marked response: > 100 nM
